Assay: Bioavailability / pharmacokinetics study, single IV and PO administration
Type: in vivo, Sprague-Dawley rats
Conditions: Sprague-Dawley, rat, plasma, po, 1 mg/kg, PO 1 mg/kg, Animal No. 2
quantity.kind: Cmax (ng/mL)
Report the value in ng/mL with no unit label.

Can you share its Cmax? I mean this compound: CC(=O)Nc1ccc(C(=O)Nc2ccccc2N)cc1 [Form A]
781

###

Assay: Bioavailability / pharmacokinetics study, single IV and PO administration
Assay type: in vivo, Sprague-Dawley rats
Conditions: Sprague-Dawley, rat, plasma, po, 1 mg/kg, PO 1 mg/kg, Animal No. 1
quantity.kind: Cmax (ng/mL)
Report the value in ng/mL with no unit label.

Can you share its Cmax? I mean this compound: CC(=O)Nc1ccc(C(=O)Nc2ccccc2N)cc1 [Form A]
687
